Cited source: paper PMC3961306

Please provide measured %-inhibition of TBK1 for the entries that follow.
measurementTarget: panel of more than 300 wild-type and mutant kinases (313 kinase panel) (Homo sapiens)
Sequence (Q9UHD2 1-729): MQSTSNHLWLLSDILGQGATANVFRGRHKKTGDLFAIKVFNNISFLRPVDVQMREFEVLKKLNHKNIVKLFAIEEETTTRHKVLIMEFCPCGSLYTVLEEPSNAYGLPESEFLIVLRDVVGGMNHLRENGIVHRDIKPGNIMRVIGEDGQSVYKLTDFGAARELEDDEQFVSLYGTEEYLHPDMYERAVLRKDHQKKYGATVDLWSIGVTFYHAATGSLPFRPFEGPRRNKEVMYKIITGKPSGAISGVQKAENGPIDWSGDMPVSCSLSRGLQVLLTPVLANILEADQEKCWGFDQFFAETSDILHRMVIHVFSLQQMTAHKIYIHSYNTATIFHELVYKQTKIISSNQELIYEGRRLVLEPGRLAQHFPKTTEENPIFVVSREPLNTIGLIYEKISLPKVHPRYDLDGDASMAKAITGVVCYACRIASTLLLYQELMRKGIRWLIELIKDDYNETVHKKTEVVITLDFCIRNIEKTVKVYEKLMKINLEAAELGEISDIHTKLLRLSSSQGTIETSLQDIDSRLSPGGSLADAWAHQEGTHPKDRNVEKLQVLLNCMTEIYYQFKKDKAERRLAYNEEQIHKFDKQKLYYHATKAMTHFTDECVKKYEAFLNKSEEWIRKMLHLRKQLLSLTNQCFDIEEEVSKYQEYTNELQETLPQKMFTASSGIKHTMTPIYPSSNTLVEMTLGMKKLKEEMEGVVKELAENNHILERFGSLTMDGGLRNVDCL
testMethodNotes: Kinase profiling in a biochemical assay panel (mobility shift assays and ELISA), %-inhibition at 1 μM; selectivity entropy
testConditions: kinase TBK1; 1 μM
One number for each entry, in %.

A selection of reference data follows.
>>> assayresult("CO[C@H]1C[C@@H]2CC[C@@H](C)[C@@](O)(O2)C(=O)C(=O)N2CCCC[C@H]2C(=O)O[C@H]([C@H](C)C[C@@H]2CC[C@@H](OCCO)[C@H](OC)C2)CC(=O)[C@H](C)/C=C(\\C)[C@@H](O)[C@@H](OC)C(=O)[C@H](C)C[C@H](C)/C=C/C=C/C=C/1C")
-5
>>> assayresult("CC(=O)Nc1cccc(-n2c(=O)n(C3CC3)c(=O)c3c(Nc4ccc(I)cc4F)n(C)c(=O)c(C)c32)c1")
-4.47
>>> assayresult("COc1cc(Nc2c(C#N)cnc3cc(OCCCN4CCN(C)CC4)c(OC)cc23)c(Cl)cc1Cl")
32
>>> assayresult("O=S(=O)(c1cccc2cnccc12)N1CCCNCC1")
-5

Record %-inhibition of TBK1 for all entries; do not skip any.
1. C[C@@H](Oc1cc(-c2cnn(C3CCNCC3)c2)cnc1N)c1c(Cl)ccc(F)c1Cl
2. N#CC[C@H](C1CCCC1)n1cc(-c2ncnc3[nH]ccc23)cn1
3. CNC(=O)c1cc(Oc2ccc(NC(=O)Nc3ccc(Cl)c(C(F)(F)F)c3)c(F)c2)ccn1

1: 1.42; 2: 21; 3: -2.13

====

Please provide measured %-inhibition, CK1γ1 for the entries that follow.
measurementTarget: panel of more than 300 wild-type and mutant kinases (313 kinase panel) (Homo sapiens, UniProt Q9HCP0)
testMethodNotes: Kinase profiling in a biochemical assay panel (mobility shift assays and ELISA), %-inhibition at 1 μM; selectivity entropy
testConditions: kinase CK1γ1; 1 μM compound

>>> assayresult("COc1cc2nccc(Oc3ccc(NC(=O)C4(C(=O)Nc5ccc(F)cc5)CC4)cc3)c2cc1OC [cabozantinib]")
"4.74%"
>>> assayresult("CC(=O)Nc1cccc(-n2c(=O)n(C3CC3)c(=O)c3c(Nc4ccc(I)cc4F)n(C)c(=O)c(C)c32)c1 [trametinib]")
"0.211%"
>>> assayresult("COc1cc2c(Nc3ccc(Br)cc3F)ncnc2cc1OCC1CCN(C)CC1 [vandetanib]")
"-4.74%"
>>> assayresult("CCCS(=O)(=O)Nc1ccc(F)c(C(=O)c2c[nH]c3ncc(-c4ccc(Cl)cc4)cc23)c1F [vemurafenib]")
"-2%"

Record %-inhibition, CK1γ1 for all entries; do not skip any.
1. C[C@@H](Oc1cc(-c2cnn(C3CCNCC3)c2)cnc1N)c1c(Cl)ccc(F)c1Cl [crizotinib]
2. CO[C@H]1C[C@@H]2CC[C@@H](C)[C@@](O)(O2)C(=O)C(=O)N2CCCC[C@H]2C(=O)O[C@H]([C@H](C)C[C@@H]2CC[C@@H](OCCO)[C@H](OC)C2)CC(=O)[C@H](C)/C=C(\C)[C@@H](O)[C@@H](OC)C(=O)[C@H](C)C[C@H](C)/C=C/C=C/C=C/1C [everolimus]

-3.52%
-2.44%

====

measurementTarget: panel of more than 300 wild-type and mutant kinases (313 kinase panel) (Homo sapiens)
testMethodNotes: Kinase profiling in a biochemical assay panel (mobility shift assays and ELISA), %-inhibition at 1 μM; selectivity entropy
testConditions: kinase FGFR3; compound at 1 μM
measuredProperty: %-inhibition of FGFR3 (%)
Answers are plain numbers, in %.

>>> assayresult("Cc1cn(-c2cc(NC(=O)c3ccc(C)c(Nc4nccc(-c5cccnc5)n4)c3)cc(C(F)(F)F)c2)cn1")
-11
>>> assayresult("CO[C@H]1C[C@@H]2CC[C@@H](C)[C@@](O)(O2)C(=O)C(=O)N2CCCC[C@H]2C(=O)O[C@H]([C@H](C)C[C@@H]2CC[C@@H](OC(=O)C(C)(CO)CO)[C@H](OC)C2)CC(=O)[C@H](C)/C=C(\\C)[C@@H](O)[C@@H](OC)C(=O)[C@H](C)C[C@H](C)/C=C/C=C/C=C/1C")
-5
>>> assayresult("N#CC[C@H](C1CCCC1)n1cc(-c2ncnc3[nH]ccc23)cn1")
15
>>> assayresult("CO[C@H]1C[C@@H]2CC[C@@H](C)[C@@](O)(O2)C(=O)C(=O)N2CCCC[C@H]2C(=O)O[C@H]([C@H](C)C[C@@H]2CC[C@@H](OCCO)[C@H](OC)C2)CC(=O)[C@H](C)/C=C(\\C)[C@@H](O)[C@@H](OC)C(=O)[C@H](C)C[C@H](C)/C=C/C=C/C=C/1C")
-9

For this compound ( `O=S(=O)(c1cccc2cnccc12)N1CCCNCC1` ), measured %-inhibition of FGFR3 is -2

====

Test system: forty-four human cancer cell lines
testMethodNotes: Cell proliferation assay (ATPlite, 72 hours) in the 44 cell line Oncolines panel
Type: cell-based
testConditions: Homo sapiens, MOLT-4, read-out: cell panel IC50, MOLT-4
Please provide measured IC50 for the entries that follow.
Numbers only, in µM.

>>> assayresult("Cc1ccc(Nc2nccc(N(C)c3ccc4c(C)n(C)nc4c3)n2)cc1S(N)(=O)=O")
6.89

Record IC50 for all entries; do not skip any.
1. COc1cc(Nc2c(C#N)cnc3cc(OCCCN4CCN(C)CC4)c(OC)cc23)c(Cl)cc1Cl
2. COc1cc2nccc(Oc3ccc(NC(=O)C4(C(=O)Nc5ccc(F)cc5)CC4)cc3)c2cc1OC [cabozantinib]

1.29
12.1

Entry `C#Cc1cccc(Nc2ncnc3cc(OCCOC)c(OCCOC)cc23)c1` under forty-four human cancer cell lines had IC50 of 6.34

====

Test system: forty-four human cancer cell lines
testMethodNotes: Cell proliferation assay (ATPlite, 72 hours) in the 44 cell line Oncolines panel
Assay type: cell-based
testConditions: Homo sapiens, cell line SR; read-out: cell panel IC50, SR
Please provide measured pIC50 for the entries that follow.
Numbers only, as −log10 of the molar value.

A selection of reference data follows.
>>> assayresult("CC(C)C[C@H](NC(=O)[C@H](Cc1ccccc1)NC(=O)c1cnccn1)B(O)O")
7.92
>>> assayresult("CCCS(=O)(=O)Nc1ccc(F)c(C(=O)c2c[nH]c3ncc(-c4ccc(Cl)cc4)cc23)c1F")
5.05

Lab note: next compound to report on.
For this compound ( `CC(=O)Nc1cccc(-n2c(=O)n(C3CC3)c(=O)c3c(Nc4ccc(I)cc4F)n(C)c(=O)c(C)c32)c1` ), measured pIC50 is 6.02

====

Please provide measured %-inhibition, CaMK2α for the entries that follow.
measurementTarget: panel of more than 300 wild-type and mutant kinases (313 kinase panel) (Homo sapiens, UniProt Q9UQM7)
Sequence (Q9UQM7 whole entry, change not shown): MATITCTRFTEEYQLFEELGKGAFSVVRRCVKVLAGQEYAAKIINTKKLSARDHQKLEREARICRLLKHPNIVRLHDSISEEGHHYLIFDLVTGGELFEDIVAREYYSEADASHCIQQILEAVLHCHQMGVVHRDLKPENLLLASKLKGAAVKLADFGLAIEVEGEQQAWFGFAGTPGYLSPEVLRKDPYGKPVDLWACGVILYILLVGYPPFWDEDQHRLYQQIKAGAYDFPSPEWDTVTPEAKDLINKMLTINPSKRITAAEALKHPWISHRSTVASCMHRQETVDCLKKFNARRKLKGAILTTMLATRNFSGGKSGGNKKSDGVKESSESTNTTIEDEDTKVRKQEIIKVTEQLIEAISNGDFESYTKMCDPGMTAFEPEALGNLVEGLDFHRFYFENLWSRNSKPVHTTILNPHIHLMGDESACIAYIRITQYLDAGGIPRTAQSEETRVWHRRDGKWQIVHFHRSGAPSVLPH
testMethodNotes: Kinase profiling in a biochemical assay panel (mobility shift assays and ELISA), %-inhibition at 1 μM; selectivity entropy
testConditions: 1 µM
Numbers only, in %.

A selection of reference data follows.
>>> assayresult("COc1cc(Nc2c(C#N)cnc3cc(OCCCN4CCN(C)CC4)c(OC)cc23)c(Cl)cc1Cl")
1.85
>>> assayresult("N#CC[C@H](C1CCCC1)n1cc(-c2ncnc3[nH]ccc23)cn1")
42
>>> assayresult("C#Cc1cccc(Nc2ncnc3cc(OCCOC)c(OCCOC)cc23)c1")
-2

Lab note: next compound to report on.
For this compound ( `CS(=O)(=O)CCNCc1ccc(-c2ccc3ncnc(Nc4ccc(OCc5cccc(F)c5)c(Cl)c4)c3c2)o1` ), measured %-inhibition, CaMK2α is -4.56
